Give measured inhibition for each item. Keep answers brief.
- test.system: Mitogen-activated protein kinase 13 (Homo sapiens) (UniProt O15264);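 further: mean inhibition of p38delta, screened as part of the GSK PKIS kinase inhibitor set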
- Sequence (O15264 whole entry): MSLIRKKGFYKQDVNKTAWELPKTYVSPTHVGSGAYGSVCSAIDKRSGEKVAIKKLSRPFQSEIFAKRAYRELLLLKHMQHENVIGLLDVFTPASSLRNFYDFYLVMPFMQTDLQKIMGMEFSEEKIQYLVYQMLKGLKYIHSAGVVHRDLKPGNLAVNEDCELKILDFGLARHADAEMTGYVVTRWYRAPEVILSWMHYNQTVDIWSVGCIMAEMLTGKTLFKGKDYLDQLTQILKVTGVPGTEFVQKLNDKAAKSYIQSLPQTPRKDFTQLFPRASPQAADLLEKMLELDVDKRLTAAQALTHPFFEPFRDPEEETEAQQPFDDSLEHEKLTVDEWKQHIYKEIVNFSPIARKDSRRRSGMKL
- applied.conditions: at 1 µM
Return type: number; implicit unit %.

Incoming: Find the recorded inhibition belonging to NC(=O)c1sc(-n2cnc3cc(C(F)(F)F)ccc32)cc1OCc1ccccc1Br and report it.
Outgoing: -0.68

Incoming: Find the recorded inhibition belonging to NS(=O)(=O)c1ccc(-c2ccc3c(NC(=O)C4CC4)n[nH]c3c2)cc1 and report it.
Outgoing: 5.02

Incoming: Find the recorded inhibition belonging to NS(=O)(=O)c1ccc(N/C=C2\C(=O)Nc3ccc4ncsc4c32)cc1 and report it.
Outgoing: 4.84

Incoming: Find the recorded inhibition belonging to CCn1c(-c2nonc2N)nc2c(C#CC(C)(C)O)ncc(OCC3CCNCC3)c21 and report it.
Outgoing: 2.26

Incoming: Find the recorded inhibition belonging to COc1cc2c(cc1Nc1nc(Nc3ccsc3C(N)=O)c3cc[nH]c3n1)N(C(=O)CN(C)C)CCC2 and report it.
Outgoing: 0.18

Incoming: Find the recorded inhibition belonging to CCn1c(-c2nonc2N)nc2c(C#CCN)ncc(OCCCN)c21 and report it.
Outgoing: -4.32

---

- System: Proto-oncogene tyrosine-protein kinase receptor Ret (Homo sapiens), P07949 [V804L]
- Sequence (P07949 whole entry V804L): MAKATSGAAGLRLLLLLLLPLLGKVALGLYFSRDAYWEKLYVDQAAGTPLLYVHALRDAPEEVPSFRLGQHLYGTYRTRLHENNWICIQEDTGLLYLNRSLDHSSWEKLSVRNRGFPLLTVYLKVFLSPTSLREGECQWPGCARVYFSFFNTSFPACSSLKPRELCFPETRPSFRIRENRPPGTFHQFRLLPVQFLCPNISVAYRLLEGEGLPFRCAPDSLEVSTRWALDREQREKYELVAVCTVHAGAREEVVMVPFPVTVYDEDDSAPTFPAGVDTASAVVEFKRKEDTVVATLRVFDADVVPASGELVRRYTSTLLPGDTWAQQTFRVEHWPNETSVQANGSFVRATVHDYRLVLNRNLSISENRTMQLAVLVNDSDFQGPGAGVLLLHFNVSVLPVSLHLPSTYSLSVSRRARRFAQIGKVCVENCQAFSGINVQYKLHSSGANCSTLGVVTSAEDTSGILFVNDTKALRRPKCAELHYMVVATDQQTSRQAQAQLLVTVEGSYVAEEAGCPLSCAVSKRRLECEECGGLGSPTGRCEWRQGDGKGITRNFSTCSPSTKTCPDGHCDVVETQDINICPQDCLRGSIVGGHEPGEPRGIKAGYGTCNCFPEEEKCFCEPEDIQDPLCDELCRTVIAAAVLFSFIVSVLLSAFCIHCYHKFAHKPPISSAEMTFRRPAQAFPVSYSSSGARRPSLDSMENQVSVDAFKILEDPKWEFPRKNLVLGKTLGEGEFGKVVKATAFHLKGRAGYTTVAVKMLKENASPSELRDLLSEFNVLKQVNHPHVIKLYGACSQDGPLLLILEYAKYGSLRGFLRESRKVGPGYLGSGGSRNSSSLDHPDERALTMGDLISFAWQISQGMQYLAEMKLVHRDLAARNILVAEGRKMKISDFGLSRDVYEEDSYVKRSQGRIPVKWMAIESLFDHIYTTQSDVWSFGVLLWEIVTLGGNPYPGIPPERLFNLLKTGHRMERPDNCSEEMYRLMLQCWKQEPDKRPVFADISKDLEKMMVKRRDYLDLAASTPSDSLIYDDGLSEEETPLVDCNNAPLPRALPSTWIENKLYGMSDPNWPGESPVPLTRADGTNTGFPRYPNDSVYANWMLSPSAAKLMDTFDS
- applied.conditions: at 0.1 µM
measured.quantity: inhibition (%)
Return type: number; implicit unit %.

Incoming: Find the recorded inhibition belonging to NS(=O)(=O)c1ccc(-c2ccc3c(NC(=O)C4CC4)n[nH]c3c2)cc1 and report it.
Outgoing: 2.82

Incoming: Find the recorded inhibition belonging to COc1cc2c(cc1Nc1nc(Nc3ccsc3C(N)=O)c3cc[nH]c3n1)N(C(=O)CN(C)C)CCC2 and report it.
Outgoing: 2.29

Incoming: Find the recorded inhibition belonging to CCn1c(-c2nonc2N)nc2c(C#CC(C)(C)O)ncc(OCC3CCNCC3)c21 and report it.
Outgoing: 6.2

Incoming: Find the recorded inhibition belonging to COc1cc(C=NNc2ncnc3c2cnn3Cc2ccccc2)ccc1O and report it.
Outgoing: 1.82

Incoming: Find the recorded inhibition belonging to Fc1ccc(-c2ncn(C3CCNCC3)c2-c2ccnc(Oc3ccccc3)n2)cc1 and report it.
Outgoing: 1.33

Incoming: Find the recorded inhibition belonging to Cc1cc(-c2ccco2)cc(C)c1/C=C/c1cncc(-c2nn[nH]n2)c1 and report it.
Outgoing: 8.81

Incoming: Find the recorded inhibition belonging to CCn1c(-c2nonc2N)nc2c(C#CC(C)(C)O)nc(O[C@@H](CN)c3ccccc3)cc21 and report it.
Outgoing: 9.12

Incoming: Find the recorded inhibition belonging to NS(=O)(=O)c1ccc(N/C=C2\C(=O)Nc3ccc4ncsc4c32)cc1 and report it.
Outgoing: 47.3

Incoming: Find the recorded inhibition belonging to COc1cccc(COc2cc(-n3cnc4ccccc43)sc2C(N)=O)c1 and report it.
Outgoing: 0.81

Incoming: Find the recorded inhibition belonging to CCn1c(-c2nonc2N)nc2c(C#CCN)ncc(OCCCN)c21 and report it.
Outgoing: 6.12

---

- test.system: Insulin-like growth factor 1 receptor (Homo sapiens);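 further: each value is a mean percent inhibition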
- applied.conditions: at 1 µM
Give measured inhibition for each item. Keep answers brief.
Return type: number; implicit unit %.

Incoming: State its inhibition on Insulin-like growth factor 1 receptor (Homo sapiens): Fc1ccc(-c2ncn(C3CCNCC3)c2-c2ccnc(Oc3ccccc3)n2)cc1
Outgoing: -4.15

Incoming: State its inhibition on Insulin-like growth factor 1 receptor (Homo sapiens): Cc1cc(-c2ccco2)cc(C)c1/C=C/c1cncc(-c2nn[nH]n2)c1
Outgoing: 1.06

Incoming: State its inhibition on Insulin-like growth factor 1 receptor (Homo sapiens): COc1cccc(-n2ncc3c(N/N=C/c4ccncc4)ncnc32)c1
Outgoing: 4.88

Incoming: State its inhibition on Insulin-like growth factor 1 receptor (Homo sapiens): COc1cc2c(cc1Nc1nc(Nc3ccsc3C(N)=O)c3cc[nH]c3n1)N(C(=O)CN(C)C)CCC2
Outgoing: 101

Incoming: State its inhibition on Insulin-like growth factor 1 receptor (Homo sapiens): CCn1c(-c2nonc2N)nc2c(C#CC(C)(C)O)ncc(OC[C@@H]3CCCN3)c21
Outgoing: 0.19

Incoming: State its inhibition on Insulin-like growth factor 1 receptor (Homo sapiens): CCn1c(-c2nonc2N)nc2c(C#CC(C)(C)O)ncc(OCC3CCNCC3)c21
Outgoing: -4.46

Incoming: State its inhibition on Insulin-like growth factor 1 receptor (Homo sapiens): COc1cccc(COc2cc(-n3cnc4ccccc43)sc2C(N)=O)c1
Outgoing: -1.64

Incoming: State its inhibition on Insulin-like growth factor 1 receptor (Homo sapiens): Nc1nonc1-c1nc2cnccc2n1C1CCCCC1
Outgoing: -0.98

Incoming: State its inhibition on Insulin-like growth factor 1 receptor (Homo sapiens): CCn1c(-c2nonc2N)nc2c(C#CCN)ncc(OCCCN)c21
Outgoing: -6.11

Incoming: State its inhibition on Insulin-like growth factor 1 receptor (Homo sapiens): NS(=O)(=O)c1ccc(-c2ccc3c(NC(=O)C4CC4)n[nH]c3c2)cc1
Outgoing: 1.61

Origin of the recorded values: ChEMBL document CHEMBL1961873
